The following compounds are listed with their measured relative viability values.
# Tested on: NCI-H2085
# assay_notes: relative viability (nuclei count vs DMSO), 5 days (fraction); higher = more cells survive
# measurement_context: first compound 0.0002 µM
Format: numeric value only, no unit, no commentary.

Example entries and their recorded answers appear below.
* CC(=O)O[C@@]12CO[C@@H]1C[C@H](O)[C@@]1(C)C(=O)[C@H](O)C3=C(C)[C@@H](OC(=O)[C@H](O)[C@@H](NC(=O)OC(C)(C)C)c4ccccc4)C[C@@](O)([C@@H](OC(=O)c4ccccc4)[C@H]21)C3(C)C [Docetaxel] + Nc1nc2[nH]cc(CCc3ccc(C(=O)N[C@@H](CCC(=O)O)C(=O)O)cc3)c2c(=O)[nH]1 [Pemetrexed] (partner 0.2 µM) | 0.84
* CC(=O)O[C@@]12CO[C@@H]1C[C@H](O)[C@@]1(C)C(=O)[C@H](O)C3=C(C)[C@@H](OC(=O)[C@H](O)[C@@H](NC(=O)OC(C)(C)C)c4ccccc4)C[C@@](O)([C@@H](OC(=O)c4ccccc4)[C@H]21)C3(C)C [Docetaxel] + O=C(c1cc(Cc2n[nH]c(=O)c3ccccc23)ccc1F)N1CCN(C(=O)C2CC2)CC1 [Olaparib] (partner 8 µM) | 0.725
* CC(=O)O[C@@]12CO[C@@H]1C[C@H](O)[C@@]1(C)C(=O)[C@H](O)C3=C(C)[C@@H](OC(=O)[C@H](O)[C@@H](NC(=O)OC(C)(C)C)c4ccccc4)C[C@@](O)([C@@H](OC(=O)c4ccccc4)[C@H]21)C3(C)C [Docetaxel] + CCNC(=O)c1noc(-c2cc(C(C)C)c(O)cc2O)c1-c1ccc(CN2CCOCC2)cc1 [Luminespib] (partner 0.01 µM) | 0.378

Note relative viability for the compound shown: CC(=O)O[C@@]12CO[C@@H]1C[C@H](O)[C@@]1(C)C(=O)[C@H](O)C3=C(C)[C@@H](OC(=O)[C@H](O)[C@@H](NC(=O)OC(C)(C)C)c4ccccc4)C[C@@](O)([C@@H](OC(=O)c4ccccc4)[C@H]21)C3(C)C [Docetaxel] + CC1(C)CCC(c2ccc(Cl)cc2)=C(CN2CCN(c3ccc(C(=O)NS(=O)(=O)c4ccc(N[C@H](CCN5CCOCC5)CSc5ccccc5)c(S(=O)(=O)C(F)(F)F)c4)cc3)CC2)C1 [Navitoclax] (partner 0.5 µM)
1.05

Tell me measured relative viability for CC(=O)O[C@@]12CO[C@@H]1C[C@H](O)[C@@]1(C)C(=O)[C@H](O)C3=C(C)[C@@H](OC(=O)[C@H](O)[C@@H](NC(=O)OC(C)(C)C)c4ccccc4)C[C@@](O)([C@@H](OC(=O)c4ccccc4)[C@H]21)C3(C)C [Docetaxel] + CS(=O)(=O)CCNCc1ccc(-c2ccc3ncnc(Nc4ccc(OCc5cccc(F)c5)c(Cl)c4)c3c2)o1 [Lapatinib] (partner 2 µM) please.
0.787

###

Each entry below lists one item and its recorded relative viability value.
# System: LU99A
# assay_notes: relative viability (nuclei count vs DMSO), 5 days (fraction); higher = more cells survive
# measurement_context: first compound 0.05 µM

• Nc1ccn([C@@H]2O[C@H](CO)[C@@H](O)[C@@H]2O)c(=O)n1 [Cytarabine] + Cc1nc(NC(=O)N2CCC[C@H]2C(N)=O)sc1-c1ccnc(C(C)(C)C(F)(F)F)c1 [Alpelisib] (partner 2 µM) = 0.51

Now for the compound whose relative viability we want.
Dear colleague, please send me the reported relative viability for Nc1ccn([C@@H]2O[C@H](CO)[C@@H](O)[C@@H]2O)c(=O)n1 [Cytarabine] + CC(=O)Nc1cccc(-n2c(=O)n(C3CC3)c(=O)c3c(Nc4ccc(I)cc4F)n(C)c(=O)c(C)c32)c1 [Trametinib] (partner 0.02 µM) when you can.
0.497

###

# Tested on: IA-LM
# assay_notes: relative viability (nuclei count vs DMSO), 5 days (fraction); higher = more cells survive
# measurement_context: first compound 0.253 µM
Consider the cut-off 0.8. If the recorded relative viability is strictly smaller, the label is MET; if not, the label is NOT MET.

Some solved entries appear below for comparison.
* O=c1[nH]c2ccccc2n1C1CCN(CCCC(c2ccc(F)cc2)c2ccc(F)cc2)CC1 [Pimozide] + CS(=O)(=O)CCNCc1ccc(-c2ccc3ncnc(Nc4ccc(OCc5cccc(F)c5)c(Cl)c4)c3c2)o1 [Lapatinib] (partner 2 µM) | NOT MET
* O=c1[nH]c2ccccc2n1C1CCN(CCCC(c2ccc(F)cc2)c2ccc(F)cc2)CC1 [Pimozide] + O=C(CCCCCCC(=O)Nc1ccccc1)NO [Vorinostat] (partner 1 µM) | NOT MET
* O=c1[nH]c2ccccc2n1C1CCN(CCCC(c2ccc(F)cc2)c2ccc(F)cc2)CC1 [Pimozide] + O=C(c1cc(Cc2n[nH]c(=O)c3ccccc23)ccc1F)N1CCN(C(=O)C2CC2)CC1 [Olaparib] (partner 8 µM) | MET
* Cc1cnc(-c2cnc(NCCNc3ccc(C#N)cn3)nc2-c2ccc(Cl)cc2Cl)[nH]1 + Cc1nc(NC(=O)N2CCC[C@H]2C(N)=O)sc1-c1ccnc(C(C)(C)C(F)(F)F)c1 [Alpelisib] (partner 2 µM) | MET

Determine if O=c1[nH]c2ccccc2n1C1CCN(CCCC(c2ccc(F)cc2)c2ccc(F)cc2)CC1 [Pimozide] + C[C@]1(O)C[C@@H](c2nc(-c3ccc4ccc(-c5ccccc5)nc4c3)c3c(N)nccn32)C1 [Linsitinib] (partner 1 µM) shows relative viability strictly lower than 0.8.
MET

###

# Test system: EMC-BAC-2
# assay_notes: relative viability (nuclei count vs DMSO), 5 days (fraction); higher = more cells survive
# measurement_context: first compound 0.01581 µM
Readings of relative viability for the listed compounds

- Nc1ccn([C@@H]2O[C@H](CO)[C@@H](O)[C@@H]2O)c(=O)n1 [Cytarabine] + NC(=O)Nc1cc(-c2cccc(F)c2)sc1C(=O)N[C@H]1CCCNC1 [AZD7762] (partner 0.2 µM): 0.97
- COc1cc2nccc(Oc3ccc(NC(=O)Nc4cc(C)on4)c(Cl)c3)c2cc1OC [Tivozanib] + N=C(N)NC(=N)NCCc1ccccc1 [Phenformin] (partner 250 µM): 0.519
- Nc1ccn([C@@H]2O[C@H](CO)[C@@H](O)[C@@H]2O)c(=O)n1 [Cytarabine] + CC(C)C[C@H](NC(=O)[C@H](Cc1ccccc1)NC(=O)c1cnccn1)B(O)O [Bortezomib] (partner 0.002 µM): 1.09
- COc1cc2nccc(Oc3ccc(NC(=O)Nc4cc(C)on4)c(Cl)c3)c2cc1OC [Tivozanib] + C[C@@H](Oc1cc(-c2cnn(C3CCNCC3)c2)cnc1N)c1c(Cl)ccc(F)c1Cl [Crizotinib] (partner 1 µM): 0.807

For the next question, use this compound.
Give the reported value of relative viability for this record: COc1cc2nccc(Oc3ccc(NC(=O)Nc4cc(C)on4)c(Cl)c3)c2cc1OC [Tivozanib] + CC(C)C[C@H](NC(=O)[C@H](Cc1ccccc1)NC(=O)c1cnccn1)B(O)O [Bortezomib] (partner 0.002 µM)
1.07

###

# System: HCC-78
# assay_notes: relative viability (nuclei count vs DMSO), 5 days (fraction); higher = more cells survive
# measurement_context: first compound 0.8 µM
parameter_measured: relative viability
Write the value as a bare number.

* Cc1cnc(-c2cnc(NCCNc3ccc(C#N)cn3)nc2-c2ccc(Cl)cc2Cl)[nH]1 + CC1(C)CCC(c2ccc(Cl)cc2)=C(CN2CCN(c3ccc(C(=O)NS(=O)(=O)c4ccc(N[C@H](CCN5CCOCC5)CSc5ccccc5)c(S(=O)(=O)C(F)(F)F)c4)cc3)CC2)C1 [Navitoclax] (partner 0.5 µM) | 0.701

Look up and state reported relative viability for O=c1[nH]c2ccccc2n1C1CCN(CCCC(c2ccc(F)cc2)c2ccc(F)cc2)CC1 [Pimozide] + O=C(CCCCCCC(=O)Nc1ccccc1)NO [Vorinostat] (partner 1 µM)
0.369

Respond only with relative viability recorded for Cc1cnc(-c2cnc(NCCNc3ccc(C#N)cn3)nc2-c2ccc(Cl)cc2Cl)[nH]1 + CS(=O)(=O)N1CCN(Cc2cc3nc(-c4cccc5[nH]ncc45)nc(N4CCOCC4)c3s2)CC1 [Pictilisib] (partner 1 µM)
0.233

###

# System: SK-LU-1
# assay_notes: relative viability (nuclei count vs DMSO), 5 days (fraction); higher = more cells survive
# measurement_context: first compound 2.53 µM
Measured relative viability values are reported for all entries that follow.
The response must contain the number and no unit.

- O=c1[nH]c2ccccc2n1C1CCN(CCCC(c2ccc(F)cc2)c2ccc(F)cc2)CC1 [Pimozide] + CS(=O)(=O)N1CCN(Cc2cc3nc(-c4cccc5[nH]ncc45)nc(N4CCOCC4)c3s2)CC1 [Pictilisib] (partner 1 µM): 0.436

Identify measured relative viability corresponding to O=c1[nH]c2ccccc2n1C1CCN(CCCC(c2ccc(F)cc2)c2ccc(F)cc2)CC1 [Pimozide] + Nc1ncn([C@H]2C[C@H](O)[C@@H](CO)O2)c(=O)n1 [Decitabine] (partner 2 µM)
0.583
